- Tested on: spontaneously hypertonic rats
- procedure details: Anti-hypertensive action on spontaneously hypertonic rats (SHR), oral administration
- Format: in vivo, rat (Okamoto
- particulars: SHR, oral; dihydralazine = 1.00
# cutoff 2 applies to Anti-hypertensive action R.E. (relative effectiveness); >= gives true (1), < gives false (0)

Exercise: Check this molecule for Anti-hypertensive action R.E. (relative effectiveness) at or above 2: NNc1nnc(NN)c2ccccc12 [Dihydralazine, dihydralazine, reference compound]
Solution: false (0)

Exercise: Check if Anti-hypertensive action R.E. (relative effectiveness) >= 2 (inclusive). Item: `CC(C)=NNc1ccc(-n2ccnc2C)nn1`
Solution: true (1)

Exercise: Could you tell me if the measured Anti-hypertensive action R.E. (relative effectiveness) of `Cc1nccn1-c1ccc(NN)nn1` reaches 2 or more?
Solution: true (1)

Exercise: Hi, just wondering whether `CCc1nccn1-c1ccc(NN=C(C)C)nn1` shows Anti-hypertensive action R.E. (relative effectiveness) of 2 or higher.
Solution: true (1)

Exercise: Decide: is the reported value of Anti-hypertensive action R.E. (relative effectiveness) for `CCc1nccn1-c1ccc(NN)nn1` equal to or greater than 2?
Solution: true (1)
